biological target: Paired box protein Pax-8 (Homo sapiens); assay: PAX8 transcriptional activity inhibition in RMG-I – RMG-I cells, luciferase, cherry-pick, dose response (AID 687027); type: functional, cell-based;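 also: luciferase reporter driven by Pax8 target thyroperoxidase promoter measured by SteadyGlo luminescence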
Sequence (Q06710 whole entry): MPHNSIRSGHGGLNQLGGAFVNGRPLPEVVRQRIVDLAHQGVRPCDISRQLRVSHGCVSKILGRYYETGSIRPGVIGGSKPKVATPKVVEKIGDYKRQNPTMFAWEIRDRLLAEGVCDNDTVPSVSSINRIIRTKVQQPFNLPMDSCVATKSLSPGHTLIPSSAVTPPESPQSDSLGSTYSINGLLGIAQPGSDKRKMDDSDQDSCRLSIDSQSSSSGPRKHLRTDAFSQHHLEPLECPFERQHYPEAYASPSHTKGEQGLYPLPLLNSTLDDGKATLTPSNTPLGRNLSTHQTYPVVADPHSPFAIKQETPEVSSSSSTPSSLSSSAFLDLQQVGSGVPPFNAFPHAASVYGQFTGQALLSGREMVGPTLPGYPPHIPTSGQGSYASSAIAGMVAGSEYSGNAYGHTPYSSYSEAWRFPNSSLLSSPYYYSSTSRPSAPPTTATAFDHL
The source made the active and inactive calls. No rule for the calls is given here.
MEASUREMENT LABEL: AC50

C[C@@H]1CN([C@H](C)CO)C(=O)c2cc(NS(=O)(=O)c3ccc(Cl)cc3)ccc2O[C@@H](C)CCCCO[C@H]1CN(C)Cc1ccc2c(c1)OCO2 ... 10.2 µM (active)

Query block: // map CCCC#Cc1ccc([C@H]2[C@@H](CO)N(C(=O)C3CCCCC3)[C@H]2C#N)cc1 to recorded AC50 (system: Paired box protein Pax-8 (Homo sapiens))
Result block: 1.55 µM (active)

Query block: Now the compound C[C@H](NC(=O)c1ccco1)C(=O)Nc1cccc([N+](=O)[O-])c1
Result block: 59.2 µM (active)

Query block: Now the compound CC(=NNC(=S)N1CCC1)c1ccccn1
Result block: < 0.26 µM (active)

Query block: Now the compound C[C@@H]1CCCCO[C@@H](CN(C)Cc2ccc(C(F)(F)F)cc2)[C@H](C)CN([C@@H](C)CO)C(=O)c2cc(NC(=O)Cc3ccccc3)ccc2O1
Result block: 7.16 µM (active)

Query block: Now the compound C[C@@H]1CCCCO[C@@H](CN(C)Cc2ccncc2)[C@H](C)CN([C@@H](C)CO)C(=O)c2cc(NC(=O)Nc3ccc(C(F)(F)F)cc3)ccc2O1
Result block: 5.52 µM (active)

Query block: Now the compound CCOc1ccc(CCN2C(=S)N([C@@H](Cc3ccc(O)cc3)CN3CCC[C@@H]3CN3C(=S)NC[C@@H]3CC(C)C)C[C@@H]2Cc2ccc(O)cc2)cc1
Result block: 8.84 µM (active)
